# methodSummary: Antiproliferative activity in MDA-MB 231 human breast cancer cells
# Assay type: functional, cell-based, Cancer cell lines
# conditionContext: cancer cell lines
endpointName: pIC50
Units for pIC50: none; it is -log10 of a concentration expressed in mol/L.

# get_value(readout='pIC50', item= CISPLATIN )
5.40

----------
# methodSummary: Antiproliferative activity in MCF-7 human breast cancer cells
# Assay type: functional, cell-based, MCF7
# conditionContext: mcf7
endpointName: pIC50
Friendly reminder that pIC50 comes from taking -log10 of the concentration in mol/L.

I would be grateful if you could share the reported pIC50 for CISPLATIN .
5.70

----------
# methodSummary: Antiproliferative activity in MDA-MB 231 human breast cancer cells
# Assay type: functional, cell-based, Cancer cell lines
# conditionContext: Homo sapiens, Cancer cell lines
Catalogue of pIC50 readings, one per entry.
pIC50 field: float, defined as -log10 of concentration (mol/L).

O=c1[nH]cc(F)c(=O)[nH]1 : 5.02

Alright, here's another molecule for you.
Recorded pIC50 of N[C@@H](Cc1ccc(N(CCCl)CCCl)cc1)C(=O)O , please.
5.41
